All figures here come from patent US10668090B2.

// values below are reported Average rate of PMPA production in 5 minutes
- Method Description: Formation of active molecules by in vitro metabolism with human liver microsomes
- Assay type: in vitro ADME
- Conditions: 25 μM, pH 7.4
Form entry: value (pmol/min/mg HLM) — number only.

Compound	Obs Value
C[C@H](Cn1cnc2c(N)ncnc21)OCP1(=O)OCC[C@@H](c2cccc(Cl)c2)O1 (mixture of isomers) [Compound 7, reference compound]	27.5
C[C@H](Cn1cnc2c(N)ncnc21)OCP1(=O)OCC[C@@H](c2cccc(Cl)c2F)O1 (mixture of isomers) [Compound 1]	33.8
C[C@H](Cn1cnc2c(N)ncnc21)OCP1(=O)OCC[C@@H](c2cc(F)cc(Cl)c2)O1 (mixture of isomers) [Compound 2]	46.8

Query block: Please report the recorded Average rate of PMPA production in 5 minutes for C[C@H](Cn1cnc2c(N)ncnc21)OCP1(=O)OCC[C@@H](c2ccc(F)c(Cl)c2)O1 (mixture of isomers) [Compound 3] .
Result block: 22.2

Query block: Please report the recorded Average rate of PMPA production in 5 minutes for C[C@H](Cn1cnc2c(N)ncnc21)OC[P@@]1(=O)OCC[C@@H](c2cc(F)cc(Cl)c2)O1 [Compound 6-cis] .
Result block: 75.8
